target entity: Pro-neuregulin-1, membrane-bound isoform (Homo sapiens) (UniProt Q02297)
Sequence (Q02297 whole entry, looked up, canonical isoform): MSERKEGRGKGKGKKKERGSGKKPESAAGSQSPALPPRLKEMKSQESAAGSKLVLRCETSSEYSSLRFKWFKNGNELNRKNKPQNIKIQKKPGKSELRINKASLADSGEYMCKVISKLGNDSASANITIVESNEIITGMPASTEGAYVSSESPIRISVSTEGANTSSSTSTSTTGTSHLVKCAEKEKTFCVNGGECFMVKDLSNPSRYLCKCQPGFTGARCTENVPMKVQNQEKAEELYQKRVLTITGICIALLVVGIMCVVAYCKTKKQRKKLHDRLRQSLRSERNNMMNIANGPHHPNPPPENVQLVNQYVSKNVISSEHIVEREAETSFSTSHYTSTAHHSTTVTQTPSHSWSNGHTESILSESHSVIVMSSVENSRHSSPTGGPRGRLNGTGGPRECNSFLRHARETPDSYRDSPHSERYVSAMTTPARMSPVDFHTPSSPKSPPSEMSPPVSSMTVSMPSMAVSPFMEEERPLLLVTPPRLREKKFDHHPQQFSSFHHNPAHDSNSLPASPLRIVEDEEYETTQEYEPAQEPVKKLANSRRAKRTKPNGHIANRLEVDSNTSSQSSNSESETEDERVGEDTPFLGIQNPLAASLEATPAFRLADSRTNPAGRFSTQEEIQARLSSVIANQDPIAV
experimental protocol: small molecules binding neuregulin-1 protein – biochemical, small-molecule microarray, fluorescence 635/667, psychiatric disease protein project, primary screen (AID 1075);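 also: score combines 667 nm spot fluorescence with signal to noise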
experimental conditions: NRG1 binding, 635 nm fluorescence, higher = more signal
measurement label: composite z-score
Reply briefly: the number, and no unit.

**Query** Could you share which composite z-score value was measured for C=CCC(OC(C)=O)[C@@H]1[C@@H](N(Cc2ccc(-c3ccccc3)cc2)C(=O)c2ccc(C)cc2)c2cc(OCCCO)ccc2N1C(=O)Cc1ccc(OC)cc1 (some centres not stated) ?
**Result** -0.369

**Query** State the recorded composite z-score for this entry: NC(=O)NCC#Cc1ccc2c(c1)[C@]1(C(=O)N2)[C@H](c2ccccc2OCCO)N2[C@H](c3ccccc3)[C@H](c3ccccc3)OC(=O)[C@H]2[C@@H]1C(=O)N1CCCCCCC1
**Result** 1.31

**Query** Looking for the measured composite z-score of COCCCNC(=O)[C@]1(Cc2ccccc2N=[N+]=[N-])N=C(c2ccc(OCCCO)cc2)O[C@@H]1c1ccccc1CN=[N+]=[N-] , can you help?
**Result** 1.49

**Query** Record request: composite z-score value, item NC(=O)NCC#Cc1ccc2c(c1)[C@]1(C(=O)N2)[C@H](c2ccc(O)cc2)N2[C@H](c3ccccc3)[C@H](c3ccccc3)OC(=O)[C@H]2[C@@H]1C(=O)N1CCN(c2ncccn2)CC1
**Result** 0.302

**Query** Request the reported composite z-score associated with CCCNC(=O)[C@@]1(C)c2ccccc2C(=O)N(Cc2cc(F)cc(C(F)(F)F)c2)[C@H]1c1ccc(CO)cc1
**Result** 0.27

**Query** Given CCCNC(=O)[C@@]1(C)c2ccccc2C(=O)N(Cc2cc(C(F)(F)F)cc(C(F)(F)F)c2)[C@H]1c1ccc(CO)cc1 , state its recorded composite z-score.
**Result** 1.68

**Query** Please give the measured composite z-score for this compound: O=C(NCCN1CCOCC1)[C@@H]1c2ccccc2C(=O)N(Cc2cc(F)cc(C(F)(F)F)c2)[C@H]1c1ccc(CO)cc1
**Result** 1.25

**Query** Endpoint output: composite z-score of O=[N+]([O-])c1ccc(C[n+]2ccc(CCCO)cc2)o1 . Value?
**Result** 0.856

**Query** Suppose we examine the compound [N-]=[N+]=NCc1ccccc1C[C@]1(C(N)=O)N=C(c2ccc(OCCCO)cc2)O[C@H]1c1ccccc1N=[N+]=[N-] ; what composite z-score value has been reported?
**Result** 1.3

**Query** Requested field: composite z-score. Item: COc1ccc([Si](C)(C)[C@H]2[C@H](CC(=O)N(CCO)Cc3ccccc3)O[C@@]3(C(=O)N(Cc4cccc(N5C(=O)c6cccc7cccc5c67)c4)c4ccccc43)[C@@H]2C)cc1
**Result** 0.824

**Query** Which composite z-score reading was recorded for the compound COCCOC(=O)N1C(=O)[C@@]2(c3cc(C#Cc4ccc(OC)cc4)ccc31)[C@H](C(N)=O)[C@H]1C(=O)O[C@H](c3ccccc3)[C@H](c3ccccc3)N1[C@@H]2c1ccc(O)cc1 ?
**Result** -0.55

**Query** For the compound OCCCc1cc[n+](Cc2cccc(OC(F)(F)F)c2)cc1 , what composite z-score is on record?
**Result** 0.564

**Query** Look up composite z-score: CCOC(=O)C=Cc1cccc(OC)c1O
**Result** -0.196

**Query** Query: composite z-score; subject: C=C(/C(=C/C[C@@H](OC(=O)c1ccncc1)c1ccc(CO)o1)c1cc(C(=O)OC)ccc1OC)C(C)C
**Result** 1.15

**Query** Report composite z-score for COC(=O)C(CC#Cc1ccc2c(c1)[C@]1(C(=O)N2)[C@H](C(=O)N2CCCCCCC2)[C@H]2C(=O)O[C@H](c3ccccc3)[C@H](c3ccccc3)N2[C@@H]1c1ccccc1OCCO)C(=O)OC please.
**Result** 2.65

**Query** Sample C=CCNC(=O)[C@H]1[C@@H]2C(=O)O[C@@H](c3ccccc3)[C@@H](c3ccccc3)N2[C@@H](c2ccc(O)cc2)[C@]12C(=O)Nc1ccc(C#Cc3ccc(OC)cc3)cc12 — what was its composite z-score?
**Result** 0.384

**Query** // query composite z-score value for entry C=CCOC(=O)[C@H]1[C@@H]2C(=O)O[C@@H](c3ccccc3)[C@@H](c3ccccc3)N2[C@@H](c2ccc(OCCOC(=O)[C@@H]3C[C@@H]4C(=O)NCC(=O)N4[C@@H]3c3ccc(O)cc3)cc2)[C@]12C(=O)Nc1ccc(I)cc12
**Result** 1.17

**Query** Name the recorded composite z-score for COc1cc(NN2C(C(O)c3ccccc3)C=CC3C(=O)N(c4ccccc4)C(=O)C32)cc(OC)c1OC (configuration not stated) .
**Result** 1.87

**Query** Which composite z-score value is on record for COc1ccc([Si](C)(C)[C@H]2[C@H](CCO)O[C@@]3(C(=O)N(Cc4ccccc4)c4ccc(N5C(=O)COc6ccccc65)cc43)[C@@H]2C)cc1 ?
**Result** 1.06

**Query** GET /values?readout=composite z-score&item= O=C1O[C@H](c2ccccc2)[C@H](c2ccccc2)N2[C@H]1[C@@H](C(=O)N1CCCCCCC1)[C@]1(C(=O)Nc3ccc(C#CC4=CCCCC4)cc31)[C@H]2c1ccc(O)cc1
**Result** 2.87

**Query** Quick one: composite z-score for CN(C)CCCC[C@@H]1NC(=O)[C@@H]2C[C@H](C(=O)NCc3ccc(F)cc3)[C@H](c3cccc(OCCO)c3)N2C1=O ?
**Result** 0.617

**Query** Which value of composite z-score has been reported for [N-]=[N+]=Nc1ccccc1[C@H]1OC(c2ccc(OCCCO)cc2)=N[C@@]1(CCS(=O)(=O)c1ccccc1)C(=O)N1CCOCC1 in the records?
**Result** 1.66

**Query** Which composite z-score reading was recorded for the compound Cc1c(NC(=O)/C(C#N)=C/C=C/c2ccccc2)c(=O)n(-c2ccccc2)n1C ?
**Result** 0.757

**Query** // returns reported composite z-score for input Cc1ccc(S[C@]2(C(=O)NCCCN(C)C)CC(=O)N(C(C)C)[C@@H]2c2ccc(CO)cc2I)cc1
**Result** 0.994

**Query** For the compound [N-]=[N+]=Nc1ccccc1[C@@H]1OC(c2ccc(OCCCO)cc2)=N[C@]1(CCS(=O)(=O)c1ccccc1)C(=O)O , what composite z-score is on record?
**Result** 1.53

**Query** Dear colleague, I am looking for the recorded composite z-score of the following compound: O=C(NCC(O)CO)[C@@]1(Cc2ccccc2)N=C(c2ccc(OCCCO)cc2)O[C@H]1c1ccccc1 (some centres not stated)
**Result** 1.39

**Query** Reported composite z-score, compound Oc1ccc2cc[n+](Cc3cccc(OC(F)(F)F)c3)cc2c1 : ____
**Result** -0.322
